Every entry's value here was drawn from paper PMC5691919.

Give % stimulation MOR for every item shown.
Assayed target: rat MOR (C6-MOR) (Rattus norvegicus)
Sequence (P33535 whole entry): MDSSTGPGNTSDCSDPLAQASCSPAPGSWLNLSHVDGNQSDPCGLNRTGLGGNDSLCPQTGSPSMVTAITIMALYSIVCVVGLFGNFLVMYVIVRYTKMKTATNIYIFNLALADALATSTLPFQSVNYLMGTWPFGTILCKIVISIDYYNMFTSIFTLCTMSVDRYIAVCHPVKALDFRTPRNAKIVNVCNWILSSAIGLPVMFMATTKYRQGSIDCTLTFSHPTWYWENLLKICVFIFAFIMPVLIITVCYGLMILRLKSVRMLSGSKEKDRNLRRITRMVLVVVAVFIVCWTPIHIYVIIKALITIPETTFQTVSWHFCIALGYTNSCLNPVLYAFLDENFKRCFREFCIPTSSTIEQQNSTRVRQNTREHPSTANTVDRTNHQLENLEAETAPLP
Experiment summary: Stimulation of [35S]-GTPγS binding, C6-MOR membranes
Format: biochemical
Conditions used: percent maximal stimulation relative to DAMGO at 10 μM; dns: does not stimulate

stdin: Kindly indicate its recorded % stimulation MOR. Item: COc1ccc2c(c1)CC(Cc1ccc3c(c1)[C@H](NC(=O)[C@@H](N)Cc1c(C)cc(O)cc1C)CCN3)C2 (some centres unmarked) [Compound 8b]
stdout: 22 (3.7) %

stdin: Kindly indicate its recorded % stimulation MOR. Item: Cc1cc(O)cc(C)c1C[C@H](N)C(=O)N[C@@H]1CCNc2ccc(CC3Cc4cccc(O)c4C3)cc21 (some centres unmarked) [Compound 8c]
stdout: 66 (3.3) %

stdin: Kindly indicate its recorded % stimulation MOR. Item: COc1ccc(Cc2ccc3c(c2)[C@H](NC(=O)[C@@H](N)Cc2c(C)cc(O)cc2C)CCN3)cc1 [Compound 4c]
stdout: 55 (3.4) %

stdin: Kindly indicate its recorded % stimulation MOR. Item: Cc1cc(O)cc(C)c1C[C@H](N)C(=O)N[C@@H]1CCNc2ccc(CC3Cc4ccc(O)cc4C3)cc21 (some centres unmarked) [Compound 8d]
stdout: 16 (2.4) %

stdin: Kindly indicate its recorded % stimulation MOR. Item: COc1cccc2c1CC(Cc1ccc3c(c1)[C@H](NC(=O)[C@@H](N)Cc1c(C)cc(O)cc1C)CCN3)C2 (some centres unmarked) [Compound 8a]
stdout: 48 (2.9) %
